target: ectodomain of m152 (mouse cytomegalovirus m152/gp40 immunoevasin) (mouse cytomegalovirus (MCMV)); assay: AUC
reportedMetric: pKd
Just so you know, pKd here is -log10 of the concentration in molar units; reply with that number alone.

Solved entries:
>  <binder>
ectodomain of RAE-1β PLWY-deletion mutant (domain or fragment) GLDDAHSLRCNLTIKDPTPADEAKCFVGEILILHLSNINKTMTSGDPGETANATEVKKCLTQPLKNLCQKLRNKVSNTKVDTHKTNGYPHLQVTMIYPQSQGRTPSATWEFNISDSYFFTFYTENMSWRSANDESGVIMNKWKDDGEFVKQLKFLIHECSQKMDEFLKQSKEKP

>  <pKd>
4.51

$$$$
>  <binder>
ectodomain of RAE-1β (domain or fragment) GLDDAHSLRCNLTIKDPTPADPLWYEAKCFVGEILILHLSNINKTMTSGDPGETANATEVKKCLTQPLKNLCQKLRNKVSNTKVDTHKTNGYPHLQVTMIYPQSQGRTPSATWEFNISDSYFFTFYTENMSWRSANDESGVIMNKWKDDGEFVKQLKFLIHECSQKMDEFLKQSKEKP

>  <pKd>
5.39

$$$$
>  <binder>
ectodomain of RAE-1γ (domain or fragment) GLDDAHSLRCNLTIKAPTPADPLWYEAKCLVDEILILHLSNINKTMTSGDPGETANATEVGECLTQPVNDLCQKLRDKVSNTKVDTHKTNGYPHLQVTMIYPQSQGQTPSATWEFNISDSYFFTFYTENMSWRSANDESGVIMNKWNDDGDLVQRLKYFIPECRQKIDEFLKQSKEKP

>  <pKd>
6.00

$$$$
>  <binder>
ectodomain of RAE-1γ PLWY-deletion mutant (domain or fragment) GLDDAHSLRCNLTIKAPTPADEAKCLVDEILILHLSNINKTMTSGDPGETANATEVGECLTQPVNDLCQKLRDKVSNTKVDTHKTNGYPHLQVTMIYPQSQGQTPSATWEFNISDSYFFTFYTENMSWRSANDESGVIMNKWNDDGDLVQRLKYFIPECRQKIDEFLKQSKEKP

>  <pKd>
5.85

$$$$

Kindly review the next binder as well.
Supply recorded pKd for ectodomain of RAE-1δ (domain or fragment) GLDDAHSLRCNLTIKAPTPADEVKCFVGEILILHLSNINKTMTSGDPGETANATEVGECLTQPLKDLCQKLRDKVSNTKVDTHKTNGYPHLQVTMIYPQSQGQTPSATWEFNISDSYFFTFYTEIMSWRSANDESGVIMNKWKDDGEFVKQLKFLIHGCSQKMDEFLKQSKEKP here. 4.47
